Source of measurements: patent US20100075973A1

// values below are reported melting point

CC[C@@H]1c2c(C#N)ncn2-c2cnc(Nc3ccc(C(=O)NC4CCC(N5CCN(C)CC5)CC4)cc3OC)nc2N1C1CCCC1 (stereo partly drawn)    187 to 192 °C
CC[C@@H]1c2c(C#N)ncn2-c2cnc(Nc3ccc(C(=O)NC4CCN(C5CCN(CC(C)C)CC5)CC4)cc3OC)nc2N1C(C)C    165 to 170 °C
CC[C@@H]1c2c(C#N)ncn2-c2cnc(Nc3ccc(C(=O)NC4CCC(N5CCN(C)CC5)CC4)cc3OC)nc2N1C(C)C (stereo partly drawn)    195 to 198 °C
CC[C@@H]1c2c(C#N)ncn2-c2cnc(Nc3ccc(C(=O)N[C@H]4CC[C@H](N5CCN(CC6CC6)CC5)CC4)c(F)c3)nc2N1C(C)C    219 to 222 °C
CC[C@@H]1c2c(C#N)ncn2-c2cnc(Nc3ccc(C(=O)N[C@H]4CC[C@H](N5CCN(CC6CC6)CC5)CC4)cc3OC)nc2N1C1CCCC1    186 to 190 °C

In the following, a different compound is considered.
Data request: Give the measured melting point of CC[C@@H]1c2c(C#N)ncn2-c2cnc(Nc3ccc(C(=O)NC4CCC(N5CCN(CC(C)C)CC5)CC4)cc3OC)nc2N1C(C)C (stereo partly drawn) .
Data returned: 165 to 170 °C

====

RECORDED ENDPOINT: melting point

Here are 5 compounds together with their reported answers.
CC[C@@H]1c2c(C#N)ncn2-c2cnc(Nc3cc(F)c(C(=O)NC4CCC(N5CCN(CC(C)C)CC5)CC4)cc3OC)nc2N1C1CCCC1 (stereo partly drawn) [Example 8]    155 to 158 °C
CC[C@@H]1c2c(C#N)ncn2-c2cnc(Nc3ccc(C(=O)NC4CCC(N5CCN(CC6CC6)CC5)CC4)cc3OC)nc2N1C(C)C (stereo partly drawn) [Example 11]    198 to 204 °C
CC[C@@H]1c2c(C#N)ncn2-c2cnc(Nc3cc(F)c(C(=O)NC4CCC(N5CCN(C)CC5)CC4)cc3OC)nc2N1C1CCCC1 (stereo partly drawn) [Example 6]    > 205 °C
CC[C@@H]1c2c(C#N)ncn2-c2cnc(Nc3ccc(C(=O)NC4CCC(N5CCN(CC)CC5)CC4)cc3OC)nc2N1C1CCCC1 (stereo partly drawn) [Example 3]    170 to 173 °C
CC[C@@H]1c2c(C#N)ncn2-c2cnc(Nc3cc(F)c(C(=O)NC4CCC(N5CCN(CC(C)C)CC5)CC4)cc3OC)nc2N1C(C)C (stereo partly drawn) [Example 18]    219 to 222 °C

In the following, a different compound is considered.
Data request: Give the measured melting point of CC[C@@H]1c2c(C#N)ncn2-c2cnc(Nc3ccc(C(=O)NC4CCC(N5CCN(C(C)C)CC5)CC4)cc3OC)nc2N1C1CCCC1 (stereo partly drawn) [Example 4] .
Data returned: 216 to 220 °C
